test system: S. pneumoniae MMX 3031 cMefA; assay: MIC determination; assay type: cell-based; conditions: Streptococcus pneumoniae, MMX3031CMEFA
measureName: MIC

compound="CSC1O[C@H]([C@H](NC(=O)[C@H]2NC[C@@H]3C[C@@H](CCc4cccc(F)c4)CCO[C@H]32)[C@H](C)Cl)C(O)[C@@H](O)[C@H]1O (stereo partly drawn)" target="S. pneumoniae MMX 3031 cMefA" measurename=MIC readoutvalue="≤ 0.06 µg/mL"
compound="CSC1O[C@H]([C@H](NC(=O)[C@H]2NC[C@@H]3C[C@@H](c4cc(F)cc(F)c4)CCO[C@H]32)[C@H](C)Cl)C(O)[C@@H](O)[C@H]1O (stereo partly drawn)" target="S. pneumoniae MMX 3031 cMefA" measurename=MIC readoutvalue="≤ 0.06 µg/mL"
compound="CSC1O[C@H]([C@H](NC(=O)[C@H]2NC[C@@H]3CC(c4ccc(F)cc4)=CCO[C@H]32)[C@H](C)Cl)C(O)[C@@H](O)[C@H]1O (stereo partly drawn)" target="S. pneumoniae MMX 3031 cMefA" measurename=MIC readoutvalue="≤ 0.06 µg/mL"
compound="CSC1O[C@H]([C@H](NC(=O)[C@H]2NC[C@@H]3CC=CCO[C@H]32)[C@H](C)Sc2ccc(-c3cncnc3)cc2)C(O)[C@@H](O)[C@H]1O (stereo partly drawn)" target="S. pneumoniae MMX 3031 cMefA" measurename=MIC readoutvalue="≤ 0.06 µg/mL"
compound="CSC1O[C@H]([C@H](NC(=O)[C@H]2NC[C@@H]3C[C@@H](c4ccc(C#N)cc4)CCO[C@H]32)[C@H](C)Cl)C(O)[C@@H](O)[C@H]1O (stereo partly drawn) [FSA-512081a]" target="S. pneumoniae MMX 3031 cMefA" measurename=MIC readoutvalue="< 0.06 µg/mL"
compound="CSC1O[C@H]([C@H](NC(=O)[C@H]2NC[C@@H]3C[C@@H](c4ccc(F)cc4F)CCO[C@H]32)[C@H](C)Cl)C(O)[C@@H](O)[C@H]1O (stereo partly drawn)" target="S. pneumoniae MMX 3031 cMefA" measurename=MIC readoutvalue="≤ 0.06 µg/mL"
compound="CSC1O[C@H]([C@H](NC(=O)[C@H]2NC[C@@H]3CC=CCO[C@H]32)[C@H](C)Cl)C(O)[C@@H](O)[C@H]1O (stereo partly drawn)" target="S. pneumoniae MMX 3031 cMefA" measurename=MIC readoutvalue="≤ 0.06 µg/mL"
compound="CSC1O[C@H]([C@H](NC(=O)[C@H]2NC[C@@H]3C[C@@H](c4ccc(F)cc4)CCO[C@H]32)[C@H](C)Cl)C(O)[C@@H](O)[C@H]1O (stereo partly drawn)" target="S. pneumoniae MMX 3031 cMefA" measurename=MIC readoutvalue="≤ 0.06 µg/mL"
compound="CSC1O[C@H]([C@H](NC(=O)[C@H]2NC[C@@H]3C[C@H](c4ccc(C#N)cc4)CCO[C@H]32)[C@H](C)Cl)C(O)[C@@H](O)[C@H]1O (stereo partly drawn) [FSA-512081b]" target="S. pneumoniae MMX 3031 cMefA" measurename=MIC readoutvalue="0.12 µg/mL"
compound="CSC1O[C@H]([C@H](NC(=O)[C@@H]2[C@@H]3OCC=CC[C@H]3CN2C)[C@H](C)Sc2ccc(-c3cncnc3)cc2)C(O)[C@@H](O)[C@H]1O (stereo partly drawn)" target="S. pneumoniae MMX 3031 cMefA" measurename=MIC readoutvalue="≤ 0.06 µg/mL"
compound="CSC1O[C@H]([C@H](NC(=O)[C@H]2NC[C@@H]3C=C(c4ccccc4)CCO[C@@H]23)[C@H](C)Cl)C(O)[C@@H](O)[C@H]1O (stereo partly drawn)" target="S. pneumoniae MMX 3031 cMefA" measurename=MIC readoutvalue="16 µg/mL"
compound="CSC1O[C@H]([C@H](NC(=O)[C@H]2NC[C@@H]3C=C(c4cc(F)cc(F)c4)CCO[C@@H]23)[C@H](C)Cl)C(O)[C@@H](O)[C@H]1O (stereo partly drawn)" target="S. pneumoniae MMX 3031 cMefA" measurename=MIC readoutvalue="0.25 µg/mL"
compound="CSC1O[C@H]([C@H](NC(=O)[C@H]2NC[C@@H]3CC(F)(F)CCO[C@H]32)[C@H](C)Cl)C(O)[C@@H](O)[C@H]1O (stereo partly drawn)" target="S. pneumoniae MMX 3031 cMefA" measurename=MIC readoutvalue="≤ 0.06 µg/mL"
compound="CSC1O[C@H]([C@H](NC(=O)[C@H]2NC[C@@H]3CC(c4ccc(C(F)(F)F)cc4)=CCO[C@H]32)[C@H](C)Cl)C(O)[C@@H](O)[C@H]1O (stereo partly drawn)" target="S. pneumoniae MMX 3031 cMefA" measurename=MIC readoutvalue="0.25 µg/mL"
compound="CSC1O[C@H]([C@H](NC(=O)[C@H]2NC[C@@H]3C=C(c4ccc(F)cc4)CCO[C@@H]23)[C@H](C)Cl)C(O)[C@@H](O)[C@H]1O (stereo partly drawn)" target="S. pneumoniae MMX 3031 cMefA" measurename=MIC readoutvalue="0.12 µg/mL"
